- target_desc: T1, Aβ1-42 fibrils (human)
- T1 construct: Aβ1-42 polypeptide, HFIP-treated, incubated in 10 mM HCl at 37 C for 24 h, pelleted fibrillar fraction, sonicated; Multimeric fibril; also called fibril Aβ42; fibrillar Aβ42
- test_name: SPR (BIAcore T200); Aβ1-42 fibrils immobilized, antibody as analyte; global 1:1 fit
outcome_measure: kon (M⁻¹ s⁻¹)

{"binder": "h2731 (antibody, V domains shown, Humanized IgG mAb; Only the variable domains are tied to the construct) VH: EVQLLESGGGLVQPGGSLRLSCAASGFTFSNYGMSWVRQAPGKGLEWVASIRSGSGRTYYSDNVKGRFTISRDNSKNTLYLQMNSLRAEDTAVYYCVRYDHYSGSSDYWGQGTLVTVSS VL: DVVMTQSPLSLPVTLGEPASISCKSSQSLLDYDGKTYLNWLLQKPGQSPQRLIYRVTNRDTGVPDRFSGSGSGTDFTLKISRVEAEDVGVYYCWQGTHFPRSFGQGTKVEIK", "outcome_measure": "kon", "data_value": 372000}
{"binder": "h2931 (antibody, V domains shown, also called PB-0576) VH: EVQLLESGGGLVQPGGSLRLSCAASGFTFSNFGMSWVRQAPGKGLEWVASVRSGSGRTYYSDNVKGRFTISRDNSKNTLYLQMNSLRAEDTAVYYCVRYDHYTGTSDYWGQGTLVTVSS VL: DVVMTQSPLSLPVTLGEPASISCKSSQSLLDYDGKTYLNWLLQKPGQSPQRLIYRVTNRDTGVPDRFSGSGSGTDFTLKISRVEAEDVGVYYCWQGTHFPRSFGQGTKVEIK", "outcome_measure": "kon", "data_value": 335000}
{"binder": "h2726 (antibody, V domains shown, Humanized IgG mAb; Only the variable domains are tied to the construct; also called PB-0573) VH: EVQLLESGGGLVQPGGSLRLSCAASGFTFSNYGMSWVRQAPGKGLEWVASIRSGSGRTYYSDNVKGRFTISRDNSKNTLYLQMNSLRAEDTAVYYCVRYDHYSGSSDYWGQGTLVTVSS VL: DVVMTQSPLSLPVTPGEPASISCKSSQSLLDYDGKTYLNWLLQKPGQSPQRLIYKVSNRDSGVPDRFSGSGSGTDFTLKISRVEAEDVGVYYCWQGTHFPRTFGQGTKVEIK", "outcome_measure": "kon", "data_value": 393000}
{"binder": "h2831 (antibody, V domains shown, Humanized IgG mAb; also called PB-0575) VH: EVQLLESGGGLVQPGGSLRLSCAASGFTFSNFGMSWVRQAPGKGLEWVASVRSGSGRTYYSDNVKGRFTISRDNSKNTLYLQMNSLRAEDTAVYYCVRYDHYSGTSDYWGQGTLVTVSS VL: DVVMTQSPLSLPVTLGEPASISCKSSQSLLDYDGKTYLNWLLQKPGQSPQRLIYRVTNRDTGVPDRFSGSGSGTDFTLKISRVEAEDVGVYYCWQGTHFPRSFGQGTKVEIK", "outcome_measure": "kon", "data_value": 265000}
